- particulars: [M-H]-; instrument: DT; single field, calibrated with Agilent tune mix (Agilent)
experimental-endpoint: collision cross section (N2) (Å²)
One number for each entry, in Å².

Worked cases, collision cross section (N2) given:
molecule	measurement-units	collision cross section (N2)
O=C(O)C(O)C(O)C(=O)O (stereo not given)	Å²	115.46
CC(C)(COP(=O)(O)OP(=O)(O)OC[C@H]1O[C@@H](n2cnc3c(N)ncnc32)[C@H](O)[C@@H]1OP(=O)(O)O)[C@@H](O)C(=O)NCCC(=O)NCCSC(=O)CCCC(=O)O	Å²	252.39
COc1ccc(/C=C/C(=O)O)cc1	Å²	146.28
O=C(O)CCCCCCC(=O)O	Å²	133.2

Input: Consider the molecule C[C@H](CCC(=O)NCCS(=O)(=O)O)[C@H]1CC[C@H]2[C@@H]3[C@H](O)C[C@@H]4C[C@H](O)CC[C@]4(C)[C@H]3C[C@H](O)[C@]12C [Taurocholate] and give its measured collision cross section (N2).
Output: 205.82

---

What collision cross section (N2) was measured for each of the following?
- particulars: [M+Cl]-; instrument: DT; stepped-field

Worked cases, collision cross section (N2) given:
In [3]: df
Out[3]:
                                   compound  measurement
0  CCCCC/C=C\C/C=C\C/C=C\CCCCCCC(=O)O[C@H](COC(=O)CCCCCCC/C=C\CCCCCCCC)COP(=O)([O-])OCC[N+](C)(C)C    298.46 Å²
1  CCCCCCCCCCCCC=CC[C@@H](O)[C@H](CO[C@@H]1O[C@H](CO)[C@@H](O)C(O)C1O)NC(=O)CC=CCCCCCCCCCCCCCCCCCCCC (stereo partly drawn)    298.77 Å²

Note: attention shifts to another entry.
Input: Consider the compound "CCCCCC/C=C\CCCCCCCCCC(=O)O[C@H](COC(=O)CCCCCCC/C=C\CCCCCC)COP(=O)([O-])OCC[N+](C)(C)C" and give its measured collision cross section (N2).
Output: 289.37 Å²

---

What collision cross section (N2) was measured for each of the following?
- particulars: [M+Na]+; instrument: DT; single field, calibrated with ESI Low Concentration Tuning Mix (Agilent)
One number for each entry, in Å².

Worked cases, collision cross section (N2) given:
molecule	collision cross section (N2), Å²
OC[C@H]1O[C@@H](O[C@H]2[C@H](O)[C@@H](O)[C@H](O)O[C@@H]2CO)[C@H](O)[C@@H](O)[C@@H]1O	178.7
Nc1ccn([C@H]2C[C@H](O)[C@@H](CO)O2)c(=O)n1	155.2
CC(=O)NCCCCN	134.5
O=C(O)[C@H]1OC(O)[C@H](O)[C@@H](O)[C@@H]1O (some centres not stated) [GLUCURONATE]	150.2
CC(=O)NC(CCCCN)C(=O)O (configuration not stated)	144.4

Below are some molecules; for each one, tell me its collision cross section (N2).
1. N[C@@H](Cc1cc(I)c(Oc2ccc(O)cc2)c(I)c1)C(=O)O
2. N[C@@H](C(=O)O)[C@@H](O)[C@H](O)[C@H](O)CO [GLUCOSAMINATE]
3. OC[C@H]1O[C@H](OC[C@H]2OC(O)(CO)[C@@H](O)[C@@H]2O)[C@H](O)[C@@H](O)[C@@H]1O (some centres not stated)
4. O=C(O)CCCCCCCCCO [10-HYDROXYDECANOATE]

Output:
1. 189.4
2. 146.5
3. 176
4. 151

Below are some molecules; for each one, tell me its collision cross section (N2).
1. C[C@H](CCC(=O)O)[C@H]1CC[C@H]2[C@@H]3[C@@H](O)C[C@@H]4C[C@H](O)CC[C@]4(C)[C@H]3CC[C@]12C [URSODEOXYCHOLATE]
2. Cn1cncc1C[C@H](NC(=O)CCN)C(=O)O

Output:
[198.7, 156.2]

Below are some molecules; for each one, tell me its collision cross section (N2).
1. Cc1cc2nc3c(=O)[nH]c(=O)nc-3n(C[C@H](O)[C@H](O)[C@H](O)COP(=O)(O)OP(=O)(O)OC[C@H]3O[C@@H](n4cnc5c(N)ncnc54)[C@H](O)[C@@H]3O)c2cc1C
2. O=C(O)[C@@H](O)[C@@H](O)[C@H](O)[C@@H](O)C(=O)O [SACCHARATE]
3. COC(=O)Cc1c[nH]c2ccccc12 [INDOLE-3-METHYL ACETATE]
4. CC(=O)NCCc1c[nH]c2ccc(O)cc12
5. O=C(O)CCCCCCCCC(=O)O [SEBACATE]

Output:
250.3
148.3
147.2
153.5
152.7

Input: Consider the molecule "NCCc1c[nH]c2ccc(O)cc12" and give its measured collision cross section (N2).
Output: 146.9

---

- particulars: [M-H]-; instrument: DT; stepped-field
experimental-endpoint: collision cross section (N2) (Å²)
Answers are plain numbers, in Å².

Worked cases, collision cross section (N2) given:
>>> df
                                   molecule         experimental_endpoint  measurement_units  measurement
0  CCCCC/C=C\C/C=C\CCCCCCCCCC(=O)O [cis-11,14-Eicosadienoic acid]  collision cross section (N2)                 Å²       183.32
1                  N[C@@H](Cc1ccccc1)C(=O)O  collision cross section (N2)                 Å²       141.29
2        CCCCC/C=C\C/C=C\C/C=C\CCCCCCC(=O)O  collision cross section (N2)                 Å²       183.02
3  CCCCCCCC/C=C\CCCCCCCCCC(=O)O [cis-Gondoic acid]  collision cross section (N2)                 Å²       184.29
4                   CCCCCCCCCCCCCCCCCC(=O)O  collision cross section (N2)                 Å²       177.66

Below are some molecules; for each one, tell me its collision cross section (N2).
1. CCCCCCCC/C=C\CCCCCCCC(=O)O
2. CC[C@H](C)[C@H](N)C(=O)O
3. CCCCCCCCCCCCCCC(=O)O
4. NC(N)=NCCC[C@H](N)C(=O)O
5. N[C@@H](Cc1ccc(O)cc1)C(=O)O
6. CCCCCCCCCCCCCCCCC(=O)O

Output:
1: 176.46; 2: 131.29; 3: 165.34; 4: 138.03; 5: 145.59; 6: 173.41

---

- particulars: [M+Na]+; instrument: DT; stepped-field
experimental-endpoint: collision cross section (N2)

compound	measurement
Cc1cn([C@H]2C[C@H](O)[C@@H](COP(=O)(O)O)O2)c(=O)[nH]c1=O [Thymidine 5'-Monophosphate]	169.74 Å²

Below are some compounds; for each one, tell me its collision cross section (N2).
1. CC[C@H](NC(=O)CC[C@H](N)C(=O)O)C(=O)NCC(=O)O [Ophthalmic Acid]
2. N#Cc1c[nH]cc1-c1cccc2c1OC(F)(F)O2 [Fludioxonil]
3. NC(=NCCC[C@H](N)C(=O)O)N[C@@H](CC(=O)O)C(=O)O [Argininosuccinic Acid]

Output:
1: 165.7 Å²; 2: 165.7 Å²; 3: 172.22 Å²

Below are some compounds; for each one, tell me its collision cross section (N2).
1. CCCCC/C=C\C/C=C\C/C=C\C/C=C\CCCCCC(=O)O [Adrenic Acid]
2. CCCCC/C=C/C/C=C\C[C@@H]1O[C@@H]1C/C=C\CCCC(=O)O [8(9)-EET]
3. CCCCCCCCCCCC(=O)O[C@H](CC(=O)[O-])C[N+](C)(C)C [Lauroyl-L-carnitine]
4. C=C[C@H]1[C@H](O[C@@H]2O[C@H](CO)[C@@H](O)[C@H](O)[C@H]2O)OC=C(C(=O)OC)[C@H]1CC=O [Secologanin]
5. C[C@@H]1O[C@@H](OC[C@H]2O[C@@H](Oc3c(-c4ccc(O)c(O)c4)oc4cc(O)cc(O)c4c3=O)[C@H](O)[C@@H](O)[C@@H]2O)[C@H](O)[C@H](O)[C@H]1O [Rutin]
6. OC[C@H]1O[C@@H](O[C@H]2[C@H](O)[C@H](O)[C@H](O[C@H]3[C@H](O)[C@H](O)[C@H](O[C@H]4[C@H](O)[C@H](O)C(O)O[C@@H]4CO)O[C@@H]3CO)O[C@@H]2CO)[C@@H](O)[C@@H](O)[C@@H]1O (stereo partly drawn) [Mannotetraose]
7. OC[C@H]1O[C@@H](O[C@H]2[C@H](O)[C@@H](O)[C@H](O[C@H]3[C@H](O)[C@@H](O)[C@H](O[C@H]4[C@H](O)[C@@H](O)C(O)O[C@@H]4CO)O[C@@H]3CO)O[C@@H]2CO)[C@H](O)[C@@H](O)[C@@H]1O (stereo partly drawn) [Cellotetraose]
8. OC[C@H]1O[C@H](OC[C@H]2OC(O)(CO)[C@@H](O)[C@@H]2O)[C@H](O)[C@@H](O)[C@@H]1O (stereo partly drawn) [Palatinose]

Output:
192.83 Å²
186.83 Å²
217.5 Å²
191.96 Å²
251.61 Å²
234.12 Å²
225 Å²
177.31 Å²

Input: Consider the compound Nc1ccc(S(N)(=O)=O)cc1 [Sulfanilamide] and give its measured collision cross section (N2).
Output: 152.77 Å²
